Test system: Human immunodeficiency virus 1
Experiment: Antiviral activity against HIV1 infected in H9 cells assessed as reduction in viral replication
Format: functional, organism-based
Conditions: Human immunodeficiency virus 1, H9
Reported EC50 is given for each of the following compounds.
Record the value in µM, omitting the unit from your answer.

| smilesEntry | scaleUnit | EC50 |
| --- | --- | --- |
| COc1ccccc1NC(=O)c1ccccc1Sc1ccc([N+](=O)[O-])cc1 | µM | 6 |

Now consider the entry below.
EC50 of CCN(CC)S(=O)(=O)c1ccc(OC)c(NC(=O)Cc2ccccc2[N+](=O)[O-])c1 on Human immunodeficiency virus 1?
25

----------
Tested on: Dengue virus
Experiment: Antiviral activity against Dengue virus assessed as inhibition of viral replication
Type: functional, organism-based
measuredAttribute: EC50 (nM)
Record the value in nM, omitting the unit from your answer.

EC50 of CCCCc1cn(-c2ccc(NC(=O)Nc3ccccc3C)cc2)nn1 on Dengue virus?
970
